Form field: Selectivity for β1-adrenoceptors (β1/β2) (one value per entry).
# Study target: β1-adrenoceptors (Rattus norvegicus)
# Construct: Experiments were done using male Wistar rats; from tissue; host or cells: whole anesthetized male Wistar rat (in vivo; heart rate)
# Sequence (P18090 whole entry): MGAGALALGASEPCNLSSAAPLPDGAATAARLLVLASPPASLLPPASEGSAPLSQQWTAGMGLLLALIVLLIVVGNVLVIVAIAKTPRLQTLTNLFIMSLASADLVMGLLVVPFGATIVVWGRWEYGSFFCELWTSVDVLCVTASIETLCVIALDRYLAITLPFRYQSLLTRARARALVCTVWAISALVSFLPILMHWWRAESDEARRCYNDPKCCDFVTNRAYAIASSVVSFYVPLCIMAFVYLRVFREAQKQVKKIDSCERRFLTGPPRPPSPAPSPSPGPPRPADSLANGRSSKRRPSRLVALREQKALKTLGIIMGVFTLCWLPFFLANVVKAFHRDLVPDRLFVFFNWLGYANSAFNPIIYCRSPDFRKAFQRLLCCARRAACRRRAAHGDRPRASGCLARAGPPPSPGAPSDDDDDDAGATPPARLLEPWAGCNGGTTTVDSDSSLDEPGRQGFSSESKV
# Assay comment: β1-adrenoceptor blocking action (inhibition of increase in heart rate exerted by isoproterenol) and selectivity for β1-adrenoceptors
# Assay type: in vivo, male Wistar rats
# Details: blocking activity ratio from ID50 doses; Table 2

{"columns": ["Compound", "Study target", "Selectivity for β1-adrenoceptors (β1/β2)"],
 "data": [
  ["Cc1ccccc1OCC(O)CNC(C)(C)COc1ccc(NN)nn1 (stereo not drawn)", "β1-adrenoceptors (Rattus norvegicus)", 30],
  ["CC(C)(COc1ccc(NN)nn1)NCC(O)COc1ccccc1Cl (stereo not drawn)", "β1-adrenoceptors (Rattus norvegicus)", 29],
  ["CC(C)(COc1ccc(NN)nn1)NCC(O)COc1ccccc1C#N (stereo not drawn)", "β1-adrenoceptors (Rattus norvegicus)", 5],
  ["C#Cc1ccccc1OCC(O)CNC(C)(C)COc1ccc(NN)nn1 (stereo not drawn)", "β1-adrenoceptors (Rattus norvegicus)", "> 5"],
  ["Cc1ccc(C#N)c(OCC(O)CNC(C)(C)COc2ccc(NN)nn2)c1 (stereo not drawn)", "β1-adrenoceptors (Rattus norvegicus)", 2]
]}

Kindly consider the entry below.
// query For β1-adrenoceptors (Rattus norvegicus), give Selectivity for β1-adrenoceptors (β1/β2) of the listed compound: CC(C)NCC(O)COc1ccc(CC(N)=O)cc1 (stereo not drawn) [Atenolol, reference compound]
// result 30

###

# Study target: β2 (Rattus norvegicus)
# Construct: Experiments were done using male Wistar rats; from tissue; host or cells: whole anesthetized male Wistar rat (in vivo; arterial blood pressure)
# Sequence (P10608 whole entry): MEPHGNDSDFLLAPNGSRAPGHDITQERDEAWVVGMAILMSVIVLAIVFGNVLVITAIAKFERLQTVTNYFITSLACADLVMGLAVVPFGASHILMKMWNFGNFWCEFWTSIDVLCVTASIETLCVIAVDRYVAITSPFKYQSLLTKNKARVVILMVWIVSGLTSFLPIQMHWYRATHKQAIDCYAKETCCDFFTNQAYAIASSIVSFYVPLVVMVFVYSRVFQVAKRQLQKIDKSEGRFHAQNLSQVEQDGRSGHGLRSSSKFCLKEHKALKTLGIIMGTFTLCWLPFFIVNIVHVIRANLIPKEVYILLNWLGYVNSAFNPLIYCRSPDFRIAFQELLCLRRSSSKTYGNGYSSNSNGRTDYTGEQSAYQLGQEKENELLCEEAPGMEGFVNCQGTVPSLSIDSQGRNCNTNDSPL
# Assay comment: β2-adrenoceptor blocking action (inhibition of fall in blood pressure exerted by isoproterenol)
# Type: in vivo, male Wistar rats
# Details: iv, 50% inhibition of fall in blood pressure by isoproterenol 0.1 μg/kg i.v., Table 2, read-out: β-adrenoceptor blocking action ID50 β2
Experimental readout: ED50 (mg/kg)
Please state the figure in mg/kg; there is no need to write the unit.

{"columns": ["Compound", "ED50 [mg/kg]"],
 "data": [
  ["Cc1ccccc1OCC(O)CNC(C)(C)COc1ccc(NN)nn1 (centres unmarked) [C]", 0.45],
  ["Cc1ccc(C#N)c(OCC(O)CNC(C)(C)COc2ccc(NN)nn2)c1 (centres unmarked) [K]", 0.1],
  ["CC(C)(COc1ccc(NN)nn1)NCC(O)COc1ccccc1C#N (centres unmarked) [Compound I]", 0.1],
  ["CC(C)(COc1ccc(NN)nn1)NCC(O)COc1ccccc1Cl (centres unmarked) [B]", 0.23]
]}

Kindly consider the entry below.
// query For β2 (Rattus norvegicus), give ED50 of the listed compound: CC(C)NCC(O)COc1ccc(CC(N)=O)cc1 (centres unmarked) [Atenolol, reference compound]
// result 1.5
